Experiment: ligand solubility in assay buffer
Assay type: physicochemical
Settings: assay buffer with 5% or 10% DMSO
MEASURE NAME: solubility

# lookup: solubility of N#Cc1ccc(-c2ccc(O[C@H]3CO[C@H](CO)[C@@H](O)[C@H](O)[C@@H]3O)c(Cl)c2)cc1 low solubility

Next entry: OC[C@H]1OC[C@H](Oc2ccc(-c3ccccc3)cc2Cl)[C@@H](O)[C@@H](O)[C@@H]1O low solubility

Next entry: N#Cc1ccc(-c2ccc(O[C@H]3CO[C@H](CO)[C@@H](O)[C@H](O)[C@@H]3O)cc2)cc1 low solubility
